Sourced from PubChem BioAssay AID588333

assay comment: Confirmatory Assay to Find Inhibitors of T. brucei phosphofructokinase: T. brucei in vitro Parasite Assay
applied conditions: T. brucei brucei culture viability, Alamar Blue, 72 h
Activity calls are given as the source filed them.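 The calls were made as follows: active = compounds that kill cultured T. brucei parasites with a half-maximal potency under 200 micromolar; inactive = compounds with no measurable potency.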
measured metric: Potency

                         structure_notation            result
0  O=C(Cc1ccc(Cl)c(Cl)c1)Nc1ccc(S(=O)(=O)Nc2cccc(C(=O)O)c2)cc1   105 µM (active)
1  O=C(Cc1ccc(Cl)c(Cl)c1)Nc1ccc(S(=O)(=O)Nc2ccon2)cc1  16.3 µM (active)
2  Cc1cc(NS(=O)(=O)c2ccc(NC(=O)Cc3ccc(Cl)c(Cl)c3)cc2)no1  26.8 µM (active)
3  COc1ccc(CC(=O)Nc2ccc(S(=O)(=O)Nc3cc(C)on3)cc2)cc1OC          inactive

Here's the next entry for you.
Can you look up the measured Potency of O=C(Cc1ccc(Cl)c(Cl)c1)Nc1ccc(S(=O)(=O)Nc2ccc(C(=O)O)cc2)cc1 for me? inactive
